Data provenance is patent US12291516B2.

Assayed target: BTK (Homo sapiens (Human))
Sequence (Q06187 whole entry): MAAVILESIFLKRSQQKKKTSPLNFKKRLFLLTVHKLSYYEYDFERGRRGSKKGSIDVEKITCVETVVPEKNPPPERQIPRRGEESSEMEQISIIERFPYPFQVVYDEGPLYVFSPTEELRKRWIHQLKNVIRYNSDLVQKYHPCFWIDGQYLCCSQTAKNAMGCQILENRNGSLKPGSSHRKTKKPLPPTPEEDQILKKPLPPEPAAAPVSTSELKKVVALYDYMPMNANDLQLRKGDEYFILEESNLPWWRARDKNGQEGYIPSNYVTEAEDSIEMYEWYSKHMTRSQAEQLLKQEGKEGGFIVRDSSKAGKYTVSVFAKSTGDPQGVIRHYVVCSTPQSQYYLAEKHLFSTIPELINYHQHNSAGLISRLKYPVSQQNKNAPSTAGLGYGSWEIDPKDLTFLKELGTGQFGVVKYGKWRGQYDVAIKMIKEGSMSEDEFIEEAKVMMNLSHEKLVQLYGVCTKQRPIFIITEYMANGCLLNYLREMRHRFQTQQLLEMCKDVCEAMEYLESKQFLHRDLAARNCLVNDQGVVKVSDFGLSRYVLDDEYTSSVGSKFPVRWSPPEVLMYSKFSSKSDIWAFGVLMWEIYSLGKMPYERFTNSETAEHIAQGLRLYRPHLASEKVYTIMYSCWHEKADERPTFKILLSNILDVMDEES
Assay: In house ELISA kinase inhibition assay, BTK
Type: biochemical
Assay conditions: footnote b: from in house procedure (ELISA)
Property label: IC50 (µM)

I. C=CC(=O)N1CCCC[C@H]1c1nc(-c2ccc(C(=O)Nc3cccnn3)cc2)c(C(N)=O)n1N
II. C#CC(=O)N1CCC[C@H]1c1nc(-c2ccc(C(=O)Nc3cc(C)ccn3)cc2)c(C(N)=O)n1N
q: Just curious, which one has the larger IC50 reading, I or II ? Selection: enter the item's label.
a: I

A. CC#CC(=O)N1CCC[C@H]1c1nc(-c2ccc(C(=O)Nc3cc(OC)ccn3)cc2)c(C(N)=O)n1N
B. C#CC(=O)N1CCCC[C@H]1c1nc(-c2ccc(C(=O)Nc3cc(CC)ccn3)cc2)c(C(N)=O)n1N
q: Would you let me know which has the greater IC50 value, A or B ? Your answer should be the label attached to the chosen record.
a: A
(A: 1.67 µM, B: 0.00999 µM)

a. CC#CC(=O)N1CCCC[C@H]1c1nc(-c2ccc(C(=O)Nc3cc(CC)ccn3)cc2)c(C(N)=O)n1N
b. C=CC(=O)N1CCCCCC1c1nc(-c2ccc(C(=O)Nc3cc(CC)ccn3)cc2)c(C(N)=O)n1N (stereo not shown)
q: So which one has the bigger IC50 here, a or b ? Which one? Tell me its label.
a: b
